study.target: PRMT1 (Homo sapiens, UniProt Q99873)
Sequence (Q99873 whole entry, species assumed): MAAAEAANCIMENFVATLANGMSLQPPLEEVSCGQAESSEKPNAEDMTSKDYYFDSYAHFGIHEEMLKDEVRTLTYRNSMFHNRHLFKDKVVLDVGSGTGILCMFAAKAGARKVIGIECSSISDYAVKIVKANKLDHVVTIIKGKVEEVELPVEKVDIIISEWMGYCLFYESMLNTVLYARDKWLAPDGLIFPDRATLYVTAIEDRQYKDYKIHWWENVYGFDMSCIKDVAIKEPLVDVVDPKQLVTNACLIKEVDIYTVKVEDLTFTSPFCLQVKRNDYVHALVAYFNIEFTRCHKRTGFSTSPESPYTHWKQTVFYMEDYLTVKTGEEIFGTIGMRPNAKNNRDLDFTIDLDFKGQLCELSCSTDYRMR
protocol.notes: scintillation proximity assay (SPA) of PRMT1 methyltransferase activity
Assay type: biochemical
assay.setup: 0.5 h; remaining activity of the enzyme; single point SPA test, inhibitor 10 μM; read-out: Relative Activity of PRMT1 at 10 μM
Sorting guide: entries reporting remaining activity at 10 µM beneath 90% go in the label 1 pile, the rest go in the label 0 pile.

compound=Nc1ncnc2c1ncn2[C@@H]1O[C@H](Cn2cc(CNC(=O)c3ccccc3)nn2)[C@@H](O)[C@H]1O study_target="PRMT1 (Homo sapiens, UniProt Q99873)" discrete_label="label 0"
compound=Nc1ncnc2c1ncn2[C@@H]1O[C@H](Cn2cc(CNCC(=O)Nc3ccccc3F)nn2)[C@@H](O)[C@H]1O study_target="PRMT1 (Homo sapiens, UniProt Q99873)" discrete_label="label 0"
compound="Nc1ncnc2c1ncn2C1OC(Cn2cc(CCC(N)c3ccccc3)nn2)C(O)C1O (stereo not drawn)" study_target="PRMT1 (Homo sapiens, UniProt Q99873)" discrete_label="label 0"
compound=CC(C)[C@H](N)C(=O)OCc1cn(C[C@H]2O[C@@H](n3cnc4c(N)ncnc43)[C@H](O)[C@@H]2O)nn1 study_target="PRMT1 (Homo sapiens, UniProt Q99873)" discrete_label="label 0"
compound=Nc1ncnc2c1ncn2[C@@H]1O[C@H](Cn2cc(CCCCC(=O)O)nn2)[C@@H](O)[C@H]1O study_target="PRMT1 (Homo sapiens, UniProt Q99873)" discrete_label="label 0"
compound=Nc1cc2c(cc1F)OCC(=O)N2Cc1cn(C[C@H]2O[C@@H](n3cnc4c(N)ncnc43)[C@H](O)[C@@H]2O)nn1 study_target="PRMT1 (Homo sapiens, UniProt Q99873)" discrete_label="label 0"
compound=Nc1ncnc2c1ncn2[C@@H]1O[C@H](Cn2cc(C(=O)O)nn2)[C@@H](O)[C@H]1O study_target="PRMT1 (Homo sapiens, UniProt Q99873)" discrete_label="label 0"
compound=Cc1cccc(NC(=O)CNCc2cn(C[C@H]3O[C@@H](n4cnc5c(N)ncnc54)[C@H](O)[C@@H]3O)nn2)c1 study_target="PRMT1 (Homo sapiens, UniProt Q99873)" discrete_label="label 1"

Regarding NCc1cn(C[C@H]2O[C@@H](n3cnc4c(N)ncnc43)[C@H](O)[C@@H]2O)nn1 , kindly confirm whether its remaining activity at 10 µM is beneath 90%. label 0

Regarding Nc1ncnc2c1ncn2[C@@H]1O[C@H](Cn2cc(CNC(=O)OCc3ccccc3)nn2)[C@@H](O)[C@H]1O , kindly confirm whether its remaining activity at 10 µM is beneath 90%. label 0

Regarding CC(C)(C)OC(=O)NCCS(=O)(=O)Cc1cn(C[C@H]2O[C@@H](n3cnc4c(N)ncnc43)[C@H](O)[C@@H]2O)nn1 , kindly confirm whether its remaining activity at 10 µM is beneath 90%. label 1

Regarding CC(C)(C)OC(=O)NCC(=O)NCc1cn(C[C@H]2O[C@@H](n3cnc4c(N)ncnc43)[C@H](O)[C@@H]2O)nn1 , kindly confirm whether its remaining activity at 10 µM is beneath 90%. label 0

====

study.target: PRMT1 (Homo sapiens, UniProt Q99873)
protocol.notes: scintillation proximity assay (SPA) of PRMT1 methyltransferase activity
Assay type: biochemical
assay.setup: SPA, concentration-dependent; read-out: IC50 PRMT1 (converted)
Please go through the items and note down their IC50.

Below: 5 compounds and their reported IC50.
smi=C[Si](C)(C)Cc1cn(C[C@H]2O[C@@H](n3cnc4c(N)ncnc43)[C@H](O)[C@@H]2O)nn1 assay_result="> 1000 µM"
smi=Nc1ncnc2c1ncn2[C@@H]1O[C@H](Cn2ccnn2)[C@@H](O)[C@H]1O assay_result="> 1000 µM"
smi=COC(=O)c1ccc(CNCc2cn(C[C@H]3O[C@@H](n4cnc5c(N)ncnc54)[C@H](O)[C@@H]3O)nn2)cc1 assay_result="130 µM"
smi=C[Si](C)(C)c1cn(C[C@H]2O[C@@H](n3cnc4c(N)ncnc43)[C@H](O)[C@@H]2O)nn1 assay_result="> 1000 µM"
smi=[N-]=[N+]=NC[C@H]1O[C@@H](n2cnc3c(N)ncnc32)[C@H](O)[C@@H]1O assay_result="> 1000 µM"

Kindly consider the entry below.
Entry Nc1ncnc2c1ncn2[C@@H]1O[C@H](Cn2cc(CCO)nn2)[C@@H](O)[C@H]1O : reported IC50 = ? > 1000 µM

====

study.target: PRMT5 (Homo sapiens)
Construct: His-tag; made in house; host or cells: Sf9 insect cells (Bac-to-Bac baculovirus)
Sequence (O14744 whole entry): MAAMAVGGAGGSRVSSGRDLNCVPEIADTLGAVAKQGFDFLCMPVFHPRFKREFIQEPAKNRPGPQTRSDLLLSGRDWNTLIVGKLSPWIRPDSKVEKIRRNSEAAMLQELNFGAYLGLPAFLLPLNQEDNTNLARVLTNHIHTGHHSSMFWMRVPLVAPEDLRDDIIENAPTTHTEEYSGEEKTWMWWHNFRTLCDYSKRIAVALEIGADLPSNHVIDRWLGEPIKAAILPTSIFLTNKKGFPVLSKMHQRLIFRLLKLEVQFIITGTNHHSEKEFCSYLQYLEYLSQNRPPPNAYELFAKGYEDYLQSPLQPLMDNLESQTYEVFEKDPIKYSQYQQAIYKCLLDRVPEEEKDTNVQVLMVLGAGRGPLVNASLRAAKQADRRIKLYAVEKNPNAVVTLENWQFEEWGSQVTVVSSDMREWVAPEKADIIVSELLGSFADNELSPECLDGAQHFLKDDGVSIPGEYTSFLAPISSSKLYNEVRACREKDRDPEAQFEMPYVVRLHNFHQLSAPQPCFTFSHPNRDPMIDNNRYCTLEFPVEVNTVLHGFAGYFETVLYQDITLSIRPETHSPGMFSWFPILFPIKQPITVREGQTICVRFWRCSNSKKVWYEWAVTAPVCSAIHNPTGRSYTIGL
Sequence (Q9BQA1 whole entry partner): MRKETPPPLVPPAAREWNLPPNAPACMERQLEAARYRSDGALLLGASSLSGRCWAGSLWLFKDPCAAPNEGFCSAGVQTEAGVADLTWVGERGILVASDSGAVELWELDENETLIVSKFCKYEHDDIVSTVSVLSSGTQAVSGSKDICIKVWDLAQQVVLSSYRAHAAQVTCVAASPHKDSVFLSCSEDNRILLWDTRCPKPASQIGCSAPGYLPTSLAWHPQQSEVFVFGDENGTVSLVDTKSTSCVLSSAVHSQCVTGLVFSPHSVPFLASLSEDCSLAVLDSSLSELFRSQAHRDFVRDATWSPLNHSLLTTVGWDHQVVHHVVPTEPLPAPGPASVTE
protocol.notes: scintillation proximity assay (SPA) of PRMT5 methyltransferase activity
Assay type: biochemical
assay.setup: SPA, concentration-dependent; 0.5 μM H4(1–20)K20biotin, 0.5 μM 3H-SAM; read-out: IC50 PRMT5 (converted)
Procedure: The methyltransferase activities of PRMT5 and PRMT1 in the absence and presence of the synthetic inhibitors were measured by using the scintillation proximity assay (SPA) protocol (Table 1). […] Human recombinant His-tag PRMT5 was co-expressed with His-tag MEP50 using the Bac-to-Bac baculovirus expression system (Invitrogen, Life Technologies, Carlsbad, CA, USA) as previously described. […] The purity and concentration of the plasmid were measured by a Nanodrop. […]
Please go through the items and note down their IC50.
Give bare numbers, in µM.

Quick batch: IC50 for everything below.
1. Nc1ncnc2c1ncn2[C@@H]1O[C@H](Cn2ccnn2)[C@@H](O)[C@H]1O
2. NCc1cn(C[C@H]2O[C@@H](n3cnc4c(N)ncnc43)[C@H](O)[C@@H]2O)nn1

[27, 1.2]

Entry COCc1cn(C[C@H]2O[C@@H](n3cnc4c(N)ncnc43)[C@H](O)[C@@H]2O)nn1 : reported IC50 = ? 144

====

Please go through the items and note down their remaining activity at 10 µM.
study.target: UniProt:Q99873
protocol.notes: scintillation proximity assay (SPA) of PRMT1 methyltransferase activity
Format: biochemical
assay.setup: 0.5 h; remaining activity of the enzyme; single point SPA test, inhibitor 10 μM; read-out: Relative Activity of PRMT1 at 10 μM
Please state the value followed by its unit.

Below: 2 compounds and their reported remaining activity at 10 µM.
smi=CCC(=O)Oc1ccc(CCc2cn(C[C@H]3O[C@@H](n4cnc5c(N)ncnc54)[C@H](O)[C@@H]3O)nn2)cc1OC(=O)C(C)C assay_result=91%
smi=Nc1ncnc2c1ncn2[C@@H]1O[C@H](Cn2cc(C[C@H](NC(=O)OCC3c4ccccc4-c4ccccc43)C(=O)O)nn2)[C@@H](O)[C@H]1O assay_result=91.2%

Kindly consider the entry below.
Entry Nc1ncnc2c1ncn2[C@@H]1O[C@H](Cn2cc(CNC(=O)Nc3ccc(Cl)cc3)nn2)[C@@H](O)[C@H]1O : reported remaining activity at 10 µM = ? 91.8%
